tested on: SGK1 (human), O00141 [S422D]; test: radiometric filter-binding kinase assay; details: compound 100.0 µM
Sequence (O00141 whole entry S422D, looked up): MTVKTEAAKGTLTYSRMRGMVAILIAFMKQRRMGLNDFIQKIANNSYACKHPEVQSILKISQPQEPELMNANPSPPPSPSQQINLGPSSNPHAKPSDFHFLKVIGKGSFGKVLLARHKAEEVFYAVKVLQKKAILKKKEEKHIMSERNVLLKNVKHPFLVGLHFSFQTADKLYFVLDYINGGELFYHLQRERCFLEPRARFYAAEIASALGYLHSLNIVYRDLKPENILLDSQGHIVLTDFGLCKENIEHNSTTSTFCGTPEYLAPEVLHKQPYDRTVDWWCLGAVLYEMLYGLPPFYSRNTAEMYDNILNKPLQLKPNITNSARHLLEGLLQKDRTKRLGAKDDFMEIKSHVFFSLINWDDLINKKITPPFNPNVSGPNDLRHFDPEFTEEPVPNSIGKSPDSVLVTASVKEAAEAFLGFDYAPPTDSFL
Quantity Kind: residual activity (%)

Cc1cc(N=Nc2cc(S(=O)(=O)O)c(C)cc2C)c(N)cc1O; 52
N#Cc1c(O)c2c(-c3ccc(-c4ccccc4O)cc3)csc2[nH]c1=O; 48

(I) Cc1ccc2c(c1)C(=O)[C@@]1(O)CCN(c3ccccc3)C1=N2
(II) COC(=O)/C=C/C(=O)OC
residual activity comparison. Which is larger, I or II ? API: response body contains the label of the selected item.
II
(II: 96%, I: 60%)

====

target: CAMKK2 (human) (UniProt Q96RR4); test: radiometric filter-binding kinase assay; settings: compound 10.0 µM
Sequence (Q96RR4 whole entry, looked up): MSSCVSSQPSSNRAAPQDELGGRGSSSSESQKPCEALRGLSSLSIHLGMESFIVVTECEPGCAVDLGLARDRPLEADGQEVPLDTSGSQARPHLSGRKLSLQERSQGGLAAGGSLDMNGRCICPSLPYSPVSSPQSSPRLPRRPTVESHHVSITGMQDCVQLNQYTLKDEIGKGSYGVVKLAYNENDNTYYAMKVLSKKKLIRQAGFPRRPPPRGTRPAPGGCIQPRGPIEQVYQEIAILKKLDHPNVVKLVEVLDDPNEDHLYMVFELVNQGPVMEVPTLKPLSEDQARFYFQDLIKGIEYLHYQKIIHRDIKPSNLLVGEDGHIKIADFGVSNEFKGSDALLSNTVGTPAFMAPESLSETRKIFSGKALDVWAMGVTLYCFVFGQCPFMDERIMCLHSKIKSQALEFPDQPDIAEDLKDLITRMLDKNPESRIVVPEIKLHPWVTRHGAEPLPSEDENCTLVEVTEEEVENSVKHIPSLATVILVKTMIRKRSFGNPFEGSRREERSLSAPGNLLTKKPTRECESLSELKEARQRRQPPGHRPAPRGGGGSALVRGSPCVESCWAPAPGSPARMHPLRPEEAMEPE
Quantity Kind: residual activity (%)

Example compounds with recorded residual activity:
Cc1cccc(Nc2nn(C)c3ncnc(N)c23)c1; 117
CCOC(=O)c1ccc(N2NC(=O)/C(=C/c3ccc([N+](=O)[O-])o3)C2=O)cc1; 125
NC(=O)c1ccc(-c2ccc(Oc3cncc4sc(-c5nn[nH]n5)cc34)cc2)cc1; 23
Cc1cc(SCc2sc(-c3ccc(C(F)(F)F)cc3)nc2C)ccc1OCC(=O)O; 83
O=C1Nc2nc(-c3c(O)cccc3OCC3CC3)cc(C3CCCNC3)c2CO1 (centres undefined); 78

(A) Cc1ccc(-c2ccc3c(ccc4sc5c(c43)NC[C@@H](C)NC5=O)n2)cn1
(B) CC1=C(CO)C(=O)O[C@@H]([C@@H](C)[C@H]2CC[C@H]3[C@@H]4C[C@H]5O[C@]56[C@@H](O)C=CC(=O)[C@]6(C)C4CC[C@]23C)C1 (some centres undefined)
(C) CC(C)(C#N)c1ccc(N2C(=O)OCc3cnc4ccc(-c5cnc6ccccc6c5)cc4c32)cc1
Could you please order the items by residual activity, going from the lowest number to the highest? Provide the labels, sequenced as the question asks.
A, C, B

====

biological target: MAPK12 (human); experiment: radiometric filter-binding kinase assay; settings: compound 0.1 µM
Quantity Kind: residual activity (%)

CN1CCN(CCOc2cc(OC3CCOCC3)c3c(Nc4c(Cl)ccc5c4OCO5)ncnc3c2)CC1; 94
C/C(=C1/C(=O)Nc2ccc(NC(N)=O)cc21)c1ccc[nH]1; 82
O=C(Nc1nc2cc(C(F)(F)F)cc(NC3CC3)n2n1)c1cccnc1; 102
CN(C)C/C=C/C(=O)Nc1cccc(C(=O)Nc2ccc(Nc3nccc(-c4cccnc4)n3)cc2)c1; 90
CNc1nc(-c2ccc3c(N)n[nH]c3c2)cc(N2C[C@@H](C(=O)NC3CCCCC3)CC[C@H]2C)n1; 110
CC1=C(CO)C(=O)O[C@@H]([C@@H](C)[C@H]2CC[C@H]3[C@@H]4C[C@H]5O[C@]56[C@@H](O)C=CC(=O)[C@]6(C)C4CC[C@]23C)C1 (some centres undefined); 114
Cc1ccc(Sc2cnc(Nc3cccc(Br)n3)s2)cc1C(=O)N1CCN(C(=O)CN)CC1; 77
NC(=O)c1cc(-c2ccnc(NC3CCCCC3)c2)nc(N2CCNCC2)c1; 95

(1) Cc1cccc(-c2nn(C(=S)Nc3ccccc3)cc2-c2ccnc3ccccc23)n1
(2) CNC(=O)C1[C@H]2O[C@@](C)([C@@H]1N)n1c3ccccc3c3c4c(c5c6ccccc6n2c5c31)C(=O)NC4 (some centres undefined)
Select the item with the higher value of residual activity from the options 1 and 2 listed. Please indicate the selected item by its label.
1
(1: 102%, 2: 29%)
